Hi there, I'd appreciate the recorded pKd for every entry that follows.
biological target: Rv3852 (Mycobacterium tuberculosis, UniProt I6YHB0)
Sequence (I6YHB0 2-134 limits assumed): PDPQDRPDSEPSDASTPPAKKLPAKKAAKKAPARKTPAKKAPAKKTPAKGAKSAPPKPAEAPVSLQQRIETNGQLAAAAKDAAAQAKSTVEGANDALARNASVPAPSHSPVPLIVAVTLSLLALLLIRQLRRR
Convention used: pKd is expressed as -log10 of the molar concentration.

For the compound shown here, C#CCOc1c(C)c(O)c(Cc2c(O)c(C)c(O)c(C(=O)C(C)CC)c2O)c(O)c1C(=O)CCC (centres unmarked) [a1] , give the reported pKd. 4.66

For the compound shown here, CCCC(=O)c1c(O)c(CC2(C)C(=O)C(C(=O)C(C)CC)=C(O)C(C)=C2O)c(O)c(C)c1OC (centres unmarked) [agrimophol] , give the reported pKd. 4.47
